# measured target: T1, human plasmin (Homo sapiens, UniProt P00747)
# T1 chain: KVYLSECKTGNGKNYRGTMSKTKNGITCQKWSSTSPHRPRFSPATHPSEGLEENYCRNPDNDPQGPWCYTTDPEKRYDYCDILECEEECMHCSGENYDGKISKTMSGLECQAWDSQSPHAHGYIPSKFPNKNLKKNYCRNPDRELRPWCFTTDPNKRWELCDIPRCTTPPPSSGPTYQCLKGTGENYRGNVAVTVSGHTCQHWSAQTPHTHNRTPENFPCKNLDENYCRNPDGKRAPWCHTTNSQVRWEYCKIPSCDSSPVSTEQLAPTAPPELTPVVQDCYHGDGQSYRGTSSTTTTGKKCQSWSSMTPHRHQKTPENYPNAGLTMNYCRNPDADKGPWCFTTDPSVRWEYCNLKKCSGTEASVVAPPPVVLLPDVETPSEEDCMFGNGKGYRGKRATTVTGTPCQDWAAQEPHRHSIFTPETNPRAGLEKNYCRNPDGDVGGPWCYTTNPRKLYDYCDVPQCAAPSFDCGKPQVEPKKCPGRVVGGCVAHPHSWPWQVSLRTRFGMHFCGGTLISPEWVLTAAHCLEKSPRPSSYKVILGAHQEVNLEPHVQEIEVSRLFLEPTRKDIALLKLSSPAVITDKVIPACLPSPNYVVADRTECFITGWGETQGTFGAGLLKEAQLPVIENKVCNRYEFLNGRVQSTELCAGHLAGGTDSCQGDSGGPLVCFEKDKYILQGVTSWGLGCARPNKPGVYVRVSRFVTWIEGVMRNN
test readout: pKi
Kindly note that pKi refers to -log10 of the concentration in mol/L and answer with the value alone.

Incoming: Please supply the value of reported pKi for the item SPI11 (protein) MHSFCAFKAETGPCRARFDRWFFNIFTRQCEEFIYGGCEGNQNRFESLEECKKMCTRD
Outgoing: 10.06
